The reader will find reported growth values listed item by item below.
Tested on: RXF 393 renal
ASSAY PROCEDURE: NCI-60 one-dose screen, 48 h (100 = growth as untreated, 0 = no growth, -100 = all killed)
STUDY CONDITIONS: 10 µM
Compounds without any hit were thinned out: in the full panel of roughly 83,000, 20% have a hit.
OUTCOME MEASURE: growth (%)

MOLECULE	OUTCOME MEASURE	UNIT LABEL	VALUE
CC(C)(C)c1ccc(S(=O)(=O)N[C@H]2CC[C@H]3[C@@H]4CCc5cc(OS(=O)(=O)O)ccc5[C@H]4CC[C@]23C)cc1	growth	%	9.08
Cc1cc(NC(=O)c2ccc(C)c(Nc3nccc(-c4cccnc4)n3)c2)cc(-n2cnc(C)c2)c1	growth	%	-3.26
CCCN1CN2C(=O)N3CN(CCC)CN4C(=S)N(C1)C2C34 (stereo not drawn)	growth	%	132
COc1ccc(/C=C2\CCCC3=C2N=C2SC(C)=CN2C3c2ccc(OC)cc2)cc1 (stereo not drawn)	growth	%	102
CC(C)C1=C(O)C2=C(C(=O)C1=O)[C@@]1(C)CCCC(C)(C)[C@@H]1CC2	growth	%	84.3
N=C1S/C(=C/c2ccc(-c3ccc4c(c3)C(=O)NC4=O)o2)C(=O)N1c1ccc(Br)cc1	growth	%	-28.5
COC(=O)CC[C@@H](C)[C@H]1CC[C@H]2[C@@H]3CC[C@@H]4C[C@H](O)CC[C@]4(C)[C@H]3C[C@H](O)[C@]12C	growth	%	110
C#CCOc1c(OC)cc(C(=O)/C(C)=C/c2cccc(N=[N+]=[N-])c2)cc1OC	growth	%	-8.56

====

Tested on: A498 renal
ASSAY PROCEDURE: NCI-60 one-dose screen, 48 h
STUDY CONDITIONS: 10 µM
This is part of a sample that, as a whole, favours compounds with a hit. Of some 83,000 tested, about 20% had one in any assay. Active and inactive are the calls of the source. The calls were made as follows: active = growth percent below 10; inactive = the rest.
Outcomes: True = active, False = inactive

COMPOUND	LABEL
CN1CCN(CC(=O)Nc2cccc(-n3cc(-c4ccncc4)c(-c4ccc(Cl)c(O)c4)n3)c2)CC1	False
O=C(CCn1cnc2c(cc(-c3ccccc3)n2-c2ccccc2)c1=O)Nc1ccc(F)cc1	False
COc1ccc(CCN2CCC(Nc3nc4ccccc4n3Cc3ccc(F)cc3)CC2)cc1	True
c1ccc2c(c1)Cc1ccccc1N2CCN1CCCCC1	False
CCN(CC)c1ccc(/C=C2\SC(=O)C(Nc3nnc(-c4cccnc4SCc4ccccc4)o3)C2=O)cc1 (stereo not drawn)	True
Cc1ccc(N=Nc2ccccc2)cc1	False
O=C1/C(=C/c2ccc([N+](=O)[O-])s2)Oc2cc(Cl)ccc21	False
CNS(=O)(=O)Oc1ccc(-c2ccc3occc3c2)cc1	False
COc1cc(-c2ccc[nH]2)[nH]c1/C=C1\N=C(C)C(C(=O)NC(C)C)=C1C	False
CC(=O)OC/C=C(/C)C[P+](c1ccccc1)(c1ccccc1)c1ccccc1	False
COc1cc2cc(Oc3ccc(NC(=O)Nc4ccc(Cl)c(C(F)(F)F)c4)cc3)c(C)nc2cc1OC	False
COc1ccc(-c2nnc(SCC(=O)Nc3ccc(C(=O)/C=C/c4ccccc4)cc3)n2-c2ccccc2)cc1OC	False
CN(C)CCOc1cccc(-c2nc3sccn3c2-c2ccnc(S(C)(=O)=O)n2)c1	False
COc1ccc(Cl)cc1Nc1nc(C(F)(F)F)ccc1C(=O)N/N=C/c1cc(OC)c(OC)c(OC)c1	False
COc1ccc(C(=O)N2C=Cc3ccccc3C2C#N)cc1 (stereo not drawn)	False
Brc1ccc2c(c1)-c1ccccc1C1=NCCN12	True
CC(=O)/C(=C/c1ccc(Br)cc1)C(=O)c1ccccc1	False
CCCCN(CCCC)C(=O)[C@H](CC)[C@@H]1CC[C@@H](C)[C@@H]([C@H](C)[C@@H](O)[C@@H](C)C(=O)[C@H](CC)C2O[C@]3(C=CC(=O)[C@]4(CC[C@@](C)([C@H]5CC[C@](O)(CC)[C@H](C)O5)O4)O3)[C@H](C)C[C@@H]2C)O1 (stereo partly drawn)	False
COC1OC(COS(=O)OC)C(O)C(O)C1OS(=O)OC (stereo not drawn)	False
O=C(CCNC(=O)c1nc(-c2ccccc2)n(-c2ccc(Cl)cc2)n1)NO	False
CN(C)CCOc1ccc(-c2nc3sccn3c2-c2ccnc(S(C)(=O)=O)n2)cc1	False
COc1cc(-c2nc3ccccc3o2)cc(CN2CCCCC2)c1O	False
C=C1CCC2(C#N)[C@H]3[C@H](CC[C@@H]2C)[C@@H](C)C[C@@H](CC(C)(C)NC(=O)CN2CCC2=O)[C@H]13 (stereo partly drawn)	False
COc1ccc2nc3cc(Cl)ccc3c(Nc3cc(CN4CCCC4)c(O)c(CN4CCCC4)c3)c2n1	True
Cc1cc(CCNC=O)c(C)c2c1sc1ccccc12	False
CS(=O)(=O)c1nccc(-c2c(-c3ccc(OCCc4ccccc4)cc3)nc3sccn23)n1	False
Nc1nccc(OCCO)n1	False
Cc1noc(C)c1CSc1ccccc1C(=O)N1CCN(c2cccc(C(F)(F)F)c2)CC1	False
C=C(C)[C@@H]1CC[C@]2(COCCC#N)CC[C@]3(C)[C@H](CC[C@@H]4[C@@]5(C)Cc6c([nH]c7ccccc67)C(C)(C)[C@@H]5CC[C@]43C)[C@@H]12	False
CCN(CC)CCCC(C)N=C(C1=C(C(=NC(C)CCCN(CC)CC)c2cccc(OC)c2)C(=O)NC1=O)c1cccc(OC)c1 (stereo not drawn)	False
CN(C)c1ccc(/C=N/NC(=O)c2ccccc2Nc2cccc(C(F)(F)F)c2)cc1	True
Cc1cc(Cl)ccc1Nc1nc(C(F)(F)F)ccc1C(=O)N/N=C/c1c(Cl)cccc1Cl	True
CCn1c(SC/C(=N/O)c2ccccc2)nnc1-c1ccccc1	False
Nc1ncc(-c2cnn(C3CCNCC3)c2)cc1-c1nc2ccccc2o1	False
CC(C1=C(CN(C(=O)Cc2cn(-c3ccccc3)nc2-c2ccc(Cl)cc2)C(C)C)Cc2ccccc21)c1ccccn1 (stereo not drawn)	False
CN1C(C(=O)Nc2ccccn2)=C(O)c2sc(Cl)cc2S1(=O)=O	False
O=C(COc1cccc(/C=C2\CSc3ccccc3C2=O)c1)c1ccc(Cl)cc1	False
Nc1nc(-c2ccc(Cl)cc2)cc(-c2cc3ccccc3oc2=O)n1	False
